system: IL-6; assay: IL-6 inhibition in LPS-stimulated THP-1 monocytes (HTRF); assay type: cell-based, human; details: Homo sapiens; THP-1 cells, 500 ng/mL LPS, 22 h, HTRF IL-6 readout; 10-point dose-response from 10 μM
Observable: EC50 (µM)
Reply numerically in µM, unit not repeated.

For orientation, consider the following solved cases.
Smiles entry: c1ccc(CNCc2cncc(-c3cnc4[nH]nc(-c5cc6ncccc6[nH]5)c4c3)c2)cc1
EC50 / µM: 6.01

Smiles entry: Fc1cccc(-c2cccc3[nH]c(-c4n[nH]c5ncc(-c6cccnc6)cc45)cc23)c1
EC50 / µM: 0.015

If you can, please state the reported EC50 value of `c1cncc(-c2cccc3[nH]c(-c4n[nH]c5ncc(-c6cncc(CN7CCCCC7)c6)cc45)cc23)c1` . 0.355
